Molecular target: UniProt Q9UNQ0
Test: Inhibition of BCRP expressed in human EPG-257RNOV cells at 0.1 uM relative to control
Format: cell-based
quantityMeasured: Ratio

- OC[C@]12C3N(Cc4cccc(OCc5ccccc5)c4)C4[C@@]5(CO)C(N(Cc6cccc(OCc7ccccc7)c6)C1[C@]3(CO)[C@@H]5c1ccccc1)[C@]4(CO)[C@@H]2c1ccccc1: 1.5
- COc1ccc2c3c([nH]c2c1)[C@H](C=C(C)C)N1C(=O)[C@@H]2CCCN2C(=O)[C@@H]1C3: 1.9
- OC[C@]12C3N(Cc4ccccc4)C4[C@@]5(CO)C(N(Cc6ccccc6)C1[C@]3(CO)[C@@H]5c1ccc(OCc3ccccc3)cc1)[C@]4(CO)[C@@H]2c1ccc(OCc2ccccc2)cc1: 1.4
- OC[C@]12C3N(Cc4ccccc4)C4[C@@]5(CO)C(N(Cc6ccccc6)C1[C@]3(CO)[C@@H]5c1ccccc1)[C@]4(CO)[C@@H]2c1ccccc1: 1.1
- COc1ccc(CN2C3[C@]4(CO)C5N(Cc6ccc(OC)cc6)C6[C@@](CO)(C2[C@]6(CO)[C@H]4c2ccc(OC)cc2)[C@H](c2ccc(OC)cc2)[C@@]35CO)cc1: 1.5
- OC[C@]12C3N(Cc4ccccc4)C4[C@@]5(CO)C(N(Cc6ccccc6)C1[C@]3(CO)[C@@H]5c1cccc(OCc3ccccc3)c1)[C@]4(CO)[C@@H]2c1cccc(OCc2ccccc2)c1: 1.3
- COc1ccc(CN2C3[C@]4(CO)C5N(Cc6ccc(OC)cc6)C6[C@@](CO)(C2[C@]6(CO)[C@H]4c2ccccc2)[C@H](c2ccccc2)[C@@]35CO)cc1: 1.2

* * *

Target: Broad substrate specificity ATP-binding cassette transporter ABCG2 (Homo sapiens)
Sequence (Q9UNQ0 whole entry): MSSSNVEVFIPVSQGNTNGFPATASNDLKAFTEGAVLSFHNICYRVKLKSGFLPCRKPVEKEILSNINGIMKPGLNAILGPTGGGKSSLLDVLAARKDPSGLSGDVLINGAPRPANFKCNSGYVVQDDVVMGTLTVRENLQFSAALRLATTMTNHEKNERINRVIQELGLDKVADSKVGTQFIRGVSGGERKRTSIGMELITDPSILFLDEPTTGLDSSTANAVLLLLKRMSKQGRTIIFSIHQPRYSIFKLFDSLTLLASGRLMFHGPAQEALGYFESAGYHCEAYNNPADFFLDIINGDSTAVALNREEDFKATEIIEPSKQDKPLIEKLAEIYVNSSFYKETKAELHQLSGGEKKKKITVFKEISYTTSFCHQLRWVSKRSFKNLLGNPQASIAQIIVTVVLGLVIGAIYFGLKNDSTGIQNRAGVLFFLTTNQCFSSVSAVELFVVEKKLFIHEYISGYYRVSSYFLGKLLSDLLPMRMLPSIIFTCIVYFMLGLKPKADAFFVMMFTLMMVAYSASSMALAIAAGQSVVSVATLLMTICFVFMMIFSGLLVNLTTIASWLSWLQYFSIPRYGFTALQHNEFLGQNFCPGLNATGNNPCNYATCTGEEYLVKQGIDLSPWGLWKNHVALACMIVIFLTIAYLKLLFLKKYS
Assay: Inhibition of BCRP expressed in human EPG-257RNOV cells at 1 uM relative to control
Format: cell-based
quantityMeasured: Ratio

• COc1ccc(CN2C3[C@]4(CO)C5N(Cc6ccc(OC)cc6)C6[C@@](CO)(C2[C@]6(CO)[C@H]4c2ccccc2)[C@H](c2ccccc2)[C@@]35CO)cc1 = 3.2

A. OC[C@]12C3N(Cc4ccccc4)C4[C@@]5(CO)C(N(Cc6ccccc6)C1[C@]3(CO)[C@@H]5c1cccc(OCc3ccccc3)c1)[C@]4(CO)[C@@H]2c1cccc(OCc2ccccc2)c1
B. COc1ccc(CN2C3[C@]4(CO)C5N(Cc6ccc(OC)cc6)C6[C@@](CO)(C2[C@]6(CO)[C@H]4c2ccc(OC)cc2)[C@H](c2ccc(OC)cc2)[C@@]35CO)cc1
Hi, I'm comparing A with B and wondering which one has the bigger number for Ratio. Any idea? Selection: enter the item's label.
B
(B: 6.1, A: 2.8)

* * *

System: L5178Y
Assay: Inhibition of Pgp expressed in mouse L5178Y cells at 1 uM relative to control
Format: cell-based
quantityMeasured: Ratio
In your answer, state the number alone without any accompanying words.

Example entries and their recorded answers appear below.
- COc1ccc(CN2C3[C@]4(CO)C5N(Cc6ccc(OC)cc6)C6[C@@](CO)(C2[C@]6(CO)[C@H]4c2ccc(OC)cc2)[C@H](c2ccc(OC)cc2)[C@@]35CO)cc1: 3.1
- OC[C@]12C3N(Cc4ccccc4)C4[C@@]5(CO)C(N(Cc6ccccc6)C1[C@]3(CO)[C@@H]5c1ccccc1)[C@]4(CO)[C@@H]2c1ccccc1: 4.1

Could you tell me which Ratio is on file for "OC[C@]12C3N(Cc4ccncc4)C4[C@@]5(CO)C(N(Cc6ccncc6)C1[C@]3(CO)[C@@H]5c1ccccc1)[C@]4(CO)[C@@H]2c1ccccc1" ?
1.5

* * *

Target: Multidrug resistance-associated protein 1 (Homo sapiens, UniProt P33527)
Sequence (P33527 whole entry): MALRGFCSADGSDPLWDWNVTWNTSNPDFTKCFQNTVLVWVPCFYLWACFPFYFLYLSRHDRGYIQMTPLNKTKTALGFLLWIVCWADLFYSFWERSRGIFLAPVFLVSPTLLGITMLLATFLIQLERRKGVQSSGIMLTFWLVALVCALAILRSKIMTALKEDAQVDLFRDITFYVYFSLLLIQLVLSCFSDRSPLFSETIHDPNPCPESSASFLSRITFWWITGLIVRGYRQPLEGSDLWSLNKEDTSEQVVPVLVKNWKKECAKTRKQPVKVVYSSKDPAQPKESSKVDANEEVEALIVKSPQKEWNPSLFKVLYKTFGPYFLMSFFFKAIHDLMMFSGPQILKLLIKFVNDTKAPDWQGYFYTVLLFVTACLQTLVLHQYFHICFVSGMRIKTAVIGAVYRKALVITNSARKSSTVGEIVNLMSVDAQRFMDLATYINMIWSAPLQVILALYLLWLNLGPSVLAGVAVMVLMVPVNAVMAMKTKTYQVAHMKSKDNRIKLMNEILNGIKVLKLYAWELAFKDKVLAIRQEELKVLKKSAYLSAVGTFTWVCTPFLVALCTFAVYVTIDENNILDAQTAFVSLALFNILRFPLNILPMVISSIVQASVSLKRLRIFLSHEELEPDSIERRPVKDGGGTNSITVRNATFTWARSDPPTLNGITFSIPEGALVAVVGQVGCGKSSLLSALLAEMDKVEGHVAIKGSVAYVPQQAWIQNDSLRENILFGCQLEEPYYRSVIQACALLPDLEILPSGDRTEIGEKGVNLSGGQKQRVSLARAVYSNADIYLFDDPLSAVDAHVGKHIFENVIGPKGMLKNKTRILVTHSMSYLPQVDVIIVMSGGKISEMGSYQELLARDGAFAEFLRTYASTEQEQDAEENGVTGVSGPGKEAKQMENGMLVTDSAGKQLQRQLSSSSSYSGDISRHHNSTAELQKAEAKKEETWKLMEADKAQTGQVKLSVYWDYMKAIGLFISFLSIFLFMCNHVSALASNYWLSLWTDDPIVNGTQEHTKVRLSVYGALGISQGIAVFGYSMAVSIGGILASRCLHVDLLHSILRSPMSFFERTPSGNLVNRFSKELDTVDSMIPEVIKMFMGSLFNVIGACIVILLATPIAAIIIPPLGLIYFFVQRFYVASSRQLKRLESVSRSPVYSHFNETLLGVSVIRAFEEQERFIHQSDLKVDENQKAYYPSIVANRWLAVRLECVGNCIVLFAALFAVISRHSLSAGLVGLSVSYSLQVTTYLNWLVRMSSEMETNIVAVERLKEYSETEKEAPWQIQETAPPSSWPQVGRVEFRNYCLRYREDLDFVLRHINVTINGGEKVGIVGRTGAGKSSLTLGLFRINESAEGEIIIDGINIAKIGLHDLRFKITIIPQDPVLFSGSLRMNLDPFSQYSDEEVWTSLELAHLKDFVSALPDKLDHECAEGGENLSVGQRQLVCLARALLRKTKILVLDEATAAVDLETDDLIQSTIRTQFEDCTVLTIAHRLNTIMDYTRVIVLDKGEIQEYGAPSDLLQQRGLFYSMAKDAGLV
Assay: Inhibition of MRP1 expressed in human A2780 cells at 10 uM relative to control
Format: cell-based
Settings: a2780, 10 µM
quantityMeasured: Ratio

• OC[C@]12C3N(Cc4cccc(OCc5ccccc5)c4)C4[C@@]5(CO)C(N(Cc6cccc(OCc7ccccc7)c6)C1[C@]3(CO)[C@@H]5c1ccccc1)[C@]4(CO)[C@@H]2c1ccccc1 = 2.8
• OC[C@]12C3N(Cc4ccc(OCc5ccccc5)cc4)C4[C@@]5(CO)C(N(Cc6ccc(OCc7ccccc7)cc6)C1[C@]3(CO)[C@@H]5c1ccccc1)[C@]4(CO)[C@@H]2c1ccccc1 = 2.5
• OC[C@]12C3N(Cc4ccccc4)C4[C@@]5(CO)C(N(Cc6ccccc6)C1[C@]3(CO)[C@@H]5c1ccncc1)[C@]4(CO)[C@@H]2c1ccncc1 = 2.2

This collection of values is drawn from ChEMBL document CHEMBL1177685.
